Test: gradient 5% acetonitrile 3 min, to 50% in 2 min, to 85% in 15 min, held 3 min, 100 µL/min
Details: column: Zorbax Extend-C18 2.1 x 50 mm; eluents: water / acetonitrile, 0.1% formic acid
Property Label: RP-LC retention time (s)

Query: Kindly indicate its recorded RP-LC retention time. Item: Oc1ccc(-c2csc(Nc3ccccn3)n2)cc1O
Response: 621

Query: Kindly indicate its recorded RP-LC retention time. Item: Cc1cc(N2CCN(S(=O)(=O)c3cccc(Cl)c3)CC2)nc(NC2CCCCC2)n1
Response: 844

Query: Kindly indicate its recorded RP-LC retention time. Item: O=C(Nc1cccc(C(F)(F)F)c1)N(Cc1ccsc1)C1CC1
Response: 1030

Query: Kindly indicate its recorded RP-LC retention time. Item: Nc1ncnc2c1c(-c1ccc(Oc3ccccc3)cc1)cn2C1CCCC1
Response: 1030

Query: Kindly indicate its recorded RP-LC retention time. Item: Cc1ccc(S(=O)(=O)N2CCCC(Cn3cnc4cccnc43)C2)cc1C (stereo not given)
Response: 827

Query: Kindly indicate its recorded RP-LC retention time. Item: Cc1cc(C)n(Cc2nc(-c3ccc(NC(=O)C(C)(C)C)cc3)oc2C)n1
Response: 904

Query: Kindly indicate its recorded RP-LC retention time. Item: COC(=O)CNC(=O)NC(Cc1ccccc1)Cc1ccc2c(c1)OCO2 (stereo not given)
Response: 810

Query: Kindly indicate its recorded RP-LC retention time. Item: O=S(=O)(NCC1CCN(Cc2ccco2)CC1)c1ccc2c(c1)CCCC2
Response: 603

A = O=C1CCCCC(CNC(=O)c2cccs2)N1 (stereo not given)
B = CCOc1ccccc1-c1csc(NC(=O)Cc2csc(-c3ccccc3)n2)n1
Query: For the pair A and B , which member has the lower RP-LC retention time number? Please reply using the label of the selected record.
Response: A

I = Cc1ccc(C(=O)N2CCC(c3nc4ccncc4n3CC(C)C)C2)s1 (stereo not given)
II = Cc1c(Cl)cccc1Nc1ccccc1C(=O)O
Query: For the pair I and II , which member has the lower RP-LC retention time number? Please reply using the label of the selected record.
Response: I

I = CCCCNC(=O)CCC(=O)N1CCCn2nc(-c3cn(C)c4ccccc34)cc21
II = CCCc1nc(-c2ccccc2)oc1CC(=O)Nc1ccc(Br)cc1F
Query: Task for the reader: decide whether I or II has the larger RP-LC retention time. Please reply using the label of the selected record.
Response: II

a = COc1ccc(-c2cn3c(CC(=O)Nc4ccccc4F)csc3n2)cc1OC
b = COc1ccc(Cl)cc1S(=O)(=O)c1cnc(N2CCC(C)CC2)nc1N
Query: For the pair a and b , which member has the lower RP-LC retention time number? Please reply using the label of the selected record.
Response: a

---

Experiment: gradient 5% acetonitrile 3 min, to 50% in 2 min, to 85% in 15 min, held 3 min, 100 µL/min
Settings: column: Zorbax Extend-C18 2.1 x 50 mm; eluents: water / acetonitrile, 0.1% formic acid
Property Label: RP-LC retention time (s)

I = Cc1c(Cl)cccc1NC(=O)NCCc1cn(CC(C)C)c2ncccc12
II = CCCN(C(=O)CC)c1nc(-c2ccc(C)cc2)cs1
III = COc1ccc(C(=O)Nc2ccc3nc(N4CCN(C5CCCCC5)CC4)cc(C(=O)O)c3c2)cc1
Query: Take the molecules listed above and rank them by RP-LC retention time; the top slot goes to the highest value. # list labels per requested ordering
Response: II, I, III

---

Experiment: gradient 5% acetonitrile 3 min, to 50% in 2 min, to 85% in 15 min, held 3 min, 100 µL/min
Settings: column: Zorbax Extend-C18 2.1 x 50 mm; eluents: water / acetonitrile, 0.1% formic acid
Property Label: RP-LC retention time (s)

Query: Kindly indicate its recorded RP-LC retention time. Item: CC(C)CCn1c(CN(C)C(=O)c2ccco2)nc2ccccc21
Response: 718

Query: Kindly indicate its recorded RP-LC retention time. Item: CCN1CCC2(CC1)N=C(c1ccc(F)cc1)CC(c1cc(Cl)ccc1O)N2 (stereo not given)
Response: 635

Query: Kindly indicate its recorded RP-LC retention time. Item: CCc1cc(=O)n(CC(=O)Nc2cc(Cl)ccc2C)c(N2CCOCC2)n1
Response: 771

P = O=C(C1CCCO1)N1CCC(Cc2nncn2CC2CC2)CC1 (stereo not given)
Q = CC(C)c1noc(-c2cc(=O)n(CC(=O)Nc3ccc(F)cc3)c3ccccc23)n1
Query: Task for the reader: decide whether P or Q has the larger RP-LC retention time. Please reply using the label of the selected record.
Response: Q
(Q: 995 s, P: 578 s)

---

Test: gradient 5% acetonitrile 3 min, to 50% in 2 min, to 85% in 15 min, held 3 min, 100 µL/min
Conditions: column: Zorbax Extend-C18 2.1 x 50 mm; eluents: water / acetonitrile, 0.1% formic acid
Property Label: RP-LC retention time (s)

Query: Kindly indicate its recorded RP-LC retention time. Item: COc1ccc(-c2nnc(-c3cccc(S(=O)(=O)N4CCC(C)CC4)c3)o2)cc1OC
Response: 1050

A = OCCn1cc(-c2ccc3c(c2)CC/C3=N\O)c(-c2ccncc2)n1
B = Cc1cnc(C(=O)N2CCCC2c2nc(CCOCC3CCCC3)no2)cn1 (stereo not given)
Query: For the pair A and B , which member has the lower RP-LC retention time number? Please reply using the label of the selected record.
Response: A

A = Cc1cccc(CNC(=O)C2CCN(CCc3cn(C)c4ncccc34)CC2)c1
B = Cc1noc(-c2ccc(OC3CN(C(=O)CC4CCCC4)C3)cc2)n1
Query: Task for the reader: decide whether A or B has the larger RP-LC retention time. Please reply using the label of the selected record.
Response: B
(B: 906 s, A: 626 s)

---

Assay: gradient 5% acetonitrile 3 min, to 50% in 2 min, to 85% in 15 min, held 3 min, 100 µL/min
Settings: column: Zorbax Extend-C18 2.1 x 50 mm; eluents: water / acetonitrile, 0.1% formic acid
Property Label: RP-LC retention time (s)

Check out these entries, answers already filled in.
Query: Kindly indicate its recorded RP-LC retention time. Item: O=C(Cc1ccccc1F)N1CCCn2nc(-c3ccc(Cl)cc3)cc2C1
Response: 979

Query: Kindly indicate its recorded RP-LC retention time. Item: CN1C(=O)c2cc(C(=O)NCc3ccc(Cl)cc3)nn2CC1(C)C(=O)NC1CCCCC1 (stereo not given)
Response: 850

Query: Kindly indicate its recorded RP-LC retention time. Item: CCCCn1cnc2c(-c3ccccc3)cn(CC(=O)NC(C)C)c2c1=O
Response: 905

Query: Kindly indicate its recorded RP-LC retention time. Item: Cc1ccc(NC(=O)C2CCN(C(=O)C3Sc4ccccc4NC3=O)CC2)cc1 (stereo not given)
Response: 749

Query: Kindly indicate its recorded RP-LC retention time. Item: Cc1cc(C)cc(Nc2c(-c3ccc(N(C)C)cc3)nc3cnccn23)c1
Response: 921

A = Cc1cc(C)n(-c2cc(N3CCCC(C(=O)Nc4cc(C)on4)C3)ncn2)n1 (stereo not given)
B = COc1cccc2cc(C(=O)Nc3nc(-c4ccccc4)cs3)c(=O)oc12
Query: Task for the reader: decide whether A or B has the larger RP-LC retention time. Please reply using the label of the selected record.
Response: B

---

Experiment: gradient 5% acetonitrile 3 min, to 50% in 2 min, to 85% in 15 min, held 3 min, 100 µL/min
Settings: column: Zorbax Extend-C18 2.1 x 50 mm; eluents: water / acetonitrile, 0.1% formic acid
Property Label: RP-LC retention time (s)

Check out these entries, answers already filled in.
Query: Kindly indicate its recorded RP-LC retention time. Item: CCOc1ccccc1N1CCN(Cc2cc(C)[nH]n2)CC1
Response: 612

Query: Kindly indicate its recorded RP-LC retention time. Item: O=C(Nc1cccc(Br)c1)N1CCc2nc(-c3ccc(Cl)cc3)ncc2C1
Response: 1190

Query: Kindly indicate its recorded RP-LC retention time. Item: COc1ccccc1-c1nc2cnccn2c1NCCC(=O)NC1CCCC1
Response: 618

a = Cc1ccc(NC(=O)N2CCc3c(c(-c4nc(C5CC5)no4)nn3C)C2)cc1
b = O=C(Cn1c(=O)oc2ccccc21)NCc1n[nH]c(=O)c2ccccc12
Query: For the pair a and b , which member has the lower RP-LC retention time number? Please reply using the label of the selected record.
Response: b

I = Cc1ccc2[nH]cc(CCNC(=O)C(C)n3c4ccccc4c4cnn(C)c(=O)c43)c2c1 (stereo not given)
II = CCCNC(=O)C1CCN(c2cncnc2N2CCCCC2)CC1
Query: For the pair I and II , which member has the lower RP-LC retention time number? Please reply using the label of the selected record.
Response: II
(II: 620 s, I: 906 s)

a = Cc1ccn2cc(-c3ccc(NS(=O)(=O)c4ccccc4F)cc3)nc2n1
b = Clc1cccc(-c2nnc(-c3nc(NCc4ccco4)c4ccccc4n3)o2)c1
Query: Task for the reader: decide whether a or b has the larger RP-LC retention time. Please reply using the label of the selected record.
Response: b
